Test: Acid dissociation constant (pKa) by acid-base titration
Format: physicochemical
Conditions: purified water; titration with 0.1 N perchloric acid-acetic acid solution, 25±2° C.
Procedure: […] The acid dissociation constant of the amine compound (a) was determined by the following method. • (1) Dissolving 0.2 g of the amine compound (a) in 30 mL of the purified water. • (2) Calculating the acid dissociation constant (pKa) by titrating the solution obtained in the above (1) with the 0.1 N perchloric acid-acetic acid solution using the automatic potentiometric titrator (AT-610 produced by Kyoto Electronics Manufacturing Co., Ltd.). […]
recordedEndpoint: pKa

In [3]: df
Out[3]:
                            compound  observedresult
0  NCC1CCCC(CN)C1 (stereo not shown)            10.8
